Each entry below carries its recorded Retention_time.
assay.comment: Retention time of the compound
Assay type: physicochemical
Reply with just the number (in min).

- compound: "OC1CCC(c2ccc(CN3CCOCC3)cc2)CC1 (centres undefined)"
  value.kind: "Retention_time"
  unit.descriptor: "min"
  quantitative.readout: 0.86

Query: Please look up its Retention_time: c1cc(C2CCC3(CC2)OOC2(OO3)C3CC4CC(C3)CC2C4)ccc1CN1CCOCC1 (centres undefined)
Reply: 3.68

Query: Fill in the blank: the reported Retention_time of `O=C1CCC(c2ccc(CN3CCOCC3)cc2)CC1` is ____.
Reply: 0.84

Query: Which Retention_time is listed for OCCNCc1ccc(C2CCC3(CC2)OOC2(OO3)C3CC4CC(C3)CC2C4)cc1 (centres undefined) ?
Reply: 3.54

* * *

assay.comment: Drug metabolism in mouse liver microsomes at 5 uM after 60 mins by UPLC-MS analysis
Assay type: ADME, microsome
protocol.conditions: read-out: Drug metabolism
value.kind: metabolised at 1 h, 5 µM (%)
Reply with just the number (in %).

Query: Report metabolised at 1 h, 5 µM for c1cc(C2CCC3(CC2)OOC2(OO3)C3CC4CC(C3)CC2C4)ccc1CN1CCOCC1 (stereo unspecified) please.
Reply: 39

* * *

assay.comment: Cmax in humanized NOD.Cg-Prkdcscid Il2rgtm1Wjl/SzJ mouse infected with Plasmodium falciparum Pf3D70087/N9 at 50 mg/kg, po administered as single dose after 0.25 to 23 hrs by LC-MS/MS analysis
Type: ADME, organism-based
Design: dose 50 mg/kg, route oral
protocol.conditions: in vivo
value.kind: Cmax (ng/mL)
The reply should contain only the number, in ng/mL.

Query: So what's the measured Cmax for this one? c1cc(C2CCC3(CC2)OOC2(OO3)C3CC4CC(C3)CC2C4)ccc1CN1CCOCC1 (stereo unspecified)
Reply: 607

* * *

assay.target: Cytochrome P450 2C19 (Homo sapiens)
Sequence (P33261 whole entry): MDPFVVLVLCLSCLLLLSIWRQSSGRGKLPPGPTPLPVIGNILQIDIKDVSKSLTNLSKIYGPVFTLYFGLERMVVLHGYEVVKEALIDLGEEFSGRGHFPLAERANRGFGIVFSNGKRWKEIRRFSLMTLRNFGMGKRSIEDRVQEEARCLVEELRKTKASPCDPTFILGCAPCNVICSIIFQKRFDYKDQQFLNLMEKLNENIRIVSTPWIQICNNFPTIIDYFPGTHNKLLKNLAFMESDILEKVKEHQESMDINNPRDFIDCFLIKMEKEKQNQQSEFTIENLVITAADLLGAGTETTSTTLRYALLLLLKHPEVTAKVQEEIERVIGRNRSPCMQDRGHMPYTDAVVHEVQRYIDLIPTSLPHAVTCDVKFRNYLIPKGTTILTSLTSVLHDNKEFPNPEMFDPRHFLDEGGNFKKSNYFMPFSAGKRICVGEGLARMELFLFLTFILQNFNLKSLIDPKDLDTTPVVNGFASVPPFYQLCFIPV
assay.comment: Inhibition of CYP2C19 in human liver microsomes assessed as (S)-mephenytoin 4'-hydroxylation after 4 to 40 mins in presence of NADPH by LCMS analysis
Assay type: ADME
pIC50: −log10 of the molar value.
value.kind: pIC50

Query: Form field: reported pIC50 of c1cc(C2CCC3(CC2)OOC2(OO3)C3CC4CC(C3)CC2C4)ccc1CN1CCOCC1 (stereo unspecified)
Reply: < 4.70

* * *

assay.comment: Intrinsic clearance in human liver microsomes assessed per mg protein at 1 uM by UPLC-MS analysis
Format: ADME, microsome
protocol.conditions: read-out: CLH
value.kind: microsomal CLint at 1 µM (µL/min/mg)
Respond with the bare value in µL/min/mg.

Query: Field request: microsomal CLint at 1 µM | item: c1cc(C2CCC3(CC2)OOC2(OO3)C3CC4CC(C3)CC2C4)ccc1CN1CCOCC1 (stereo unspecified)
Reply: 51

* * *

assay.comment: Drug degradation in human blood after 4 hrs by LC-MS method
Type: ADME, tissue-based
protocol.conditions: read-out: Drug degradation
value.kind: metabolised at 4 h (%)
Please respond with the number in % and leave the unit unwritten.

Query: Please report the recorded metabolised at 4 h for CS(=O)(=O)O.c1cc(C2CCC3(CC2)OOC2(OO3)C3CC4CC(C3)CC2C4)ccc1CN1CCOCC1 (stereo unspecified) .
Reply: 10

* * *

assay.target: Cytochrome P450 1A2 (Homo sapiens)
Sequence (P05177 whole entry): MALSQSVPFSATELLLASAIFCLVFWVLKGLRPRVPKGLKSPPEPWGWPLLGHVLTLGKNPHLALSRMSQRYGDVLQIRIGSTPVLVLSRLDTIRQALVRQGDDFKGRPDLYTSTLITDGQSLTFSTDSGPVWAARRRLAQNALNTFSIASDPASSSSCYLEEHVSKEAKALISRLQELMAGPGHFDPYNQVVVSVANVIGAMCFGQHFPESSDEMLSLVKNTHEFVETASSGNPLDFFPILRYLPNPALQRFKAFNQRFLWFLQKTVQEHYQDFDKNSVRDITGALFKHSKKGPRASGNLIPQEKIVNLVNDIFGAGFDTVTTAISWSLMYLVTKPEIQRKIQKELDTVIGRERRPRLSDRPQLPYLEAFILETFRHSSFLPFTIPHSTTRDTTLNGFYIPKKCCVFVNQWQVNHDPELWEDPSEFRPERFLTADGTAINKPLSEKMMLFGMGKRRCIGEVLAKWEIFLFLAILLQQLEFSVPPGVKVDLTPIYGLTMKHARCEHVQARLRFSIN
assay.comment: Inhibition of CYP1A2 in human liver microsomes assessed as phenacetin O-deethylation after 4 to 40 mins in presence of NADPH by LCMS analysis
Format: ADME
value.kind: IC50

Query: Could you tell me which IC50 is on file for c1cc(C2CCC3(CC2)OOC2(OO3)C3CC4CC(C3)CC2C4)ccc1CN1CCOCC1 (stereo unspecified) ?
Reply: > 20 µM
